- ASSAY PROTOCOL: Cytotoxicity against human HePAD38 cells assessed as cell viability incubated for 72 hrs by MTT assay
- Assay type: cell-based
MEASURED METRIC: CC50 at 72 h

Input line: Returns the measured CC50 at 72 h for the input molecule. Input: `C=C1[C@H](OC(C)=O)C[C@H](OC(C)=O)[C@@]2(C)[C@@H](OC(C)=O)CC[C@]3(CO3)[C@@H]2[C@H](OC(C)=O)[C@]2(O)[C@@H](C)C(=O)O[C@H]2[C@H]1Cl`
Output line: > 100 µM

Input line: Could you share which CC50 at 72 h value was measured for `C=C1CC[C@H](OC(C)=O)[C@]2(C)[C@@H](OC(C)=O)C[C@@H](OC(C)=O)/C(C)=C\[C@@H]3OC(=O)[C@H](C)[C@@]3(O)[C@@H](OC(C)=O)[C@@H]12` ?
Output line: > 100 µM

Input line: Dear colleague, I am looking for the recorded CC50 at 72 h of the following molecule: `CC(=O)OCC(=O)O[C@H]1/C=C\C(COC(C)=O)=C/[C@@H]2OC(=O)[C@H](C)[C@@]2(O)[C@@H](OC(C)=O)[C@H]2[C@]3(CC[C@H](OC(C)=O)[C@]12C)CO3`
Output line: > 100 µM

Input line: Consider the molecule shown here: `C=C1[C@H]2O[C@H]2[C@H](OC(C)=O)[C@@]2(C)[C@@H](OC(C)=O)CC[C@]3(CO3)[C@@H]2[C@H](OC(C)=O)[C@]2(O)[C@@H](C)C(=O)O[C@H]2[C@H]1Cl` What is its recorded CC50 at 72 h?
Output line: > 100 µM

Input line: Any idea what its CC50 at 72 h is? The molecule is `C=C1/C=C/[C@H](OC(=O)CC)[C@@]2(C)[C@@H](OC(C)=O)[C@@H](OC(C)=O)C[C@]3(CO3)[C@@H]2[C@H](OC(C)=O)[C@]2(O)[C@@H](C)C(=O)O[C@H]2[C@H]1Cl`
Output line: > 100 µM

* * *

In this section, each of the molecules is paired with its reported CC50 at 72 h.
- ASSAY PROTOCOL: Cytotoxicity against human HepG2 cells assessed as cell viability incubated for 72 hrs by MTT assay
- Format: cell-based

1) C=C1CC[C@H](OC(C)=O)[C@]2(C)[C@@H](OC(C)=O)C[C@@H](OC(C)=O)/C(COC(C)=O)=C\[C@@H]3OC(=O)[C@H](C)[C@@]3(O)[C@@H](OC(C)=O)[C@@H]12 > 100 µM
2) C=C1CC[C@H](OC(C)=O)[C@]2(C)[C@@H](OC(=O)COC(C)=O)/C=C\C(=C)[C@H](Cl)[C@@H]3OC(=O)[C@H](C)[C@@]3(O)[C@@H](OC(C)=O)[C@@H]12 > 100 µM

Next:
Input line: Give its CC50 at 72 h value. Item: `C=C1/C=C/[C@H](OC(C)=O)[C@@]2(C)[C@@H](OC(C)=O)C[C@H](OC(C)=O)[C@]3(CO3)[C@@H]2[C@H](OC(C)=O)[C@]2(O)[C@@H](C)C(=O)O[C@H]2[C@H]1Cl`
Output line: > 100 µM

* * *

- ASSAY PROTOCOL: Cytotoxicity against human HepG2 cells assessed as cell viability incubated for 72 hrs by MTT assay
- Assay type: cell-based
Quick reference for CC50 at 72 h among some compounds

// solved cases for CC50 at 72 h follow
1) C=C1CC[C@H](OC(C)=O)[C@]2(C)[C@@H](OC(C)=O)C[C@@H](OC(C)=O)C(=C)[C@H](Cl)[C@@H]3OC(=O)[C@H](C)[C@@]3(O)[C@@H](OC(C)=O)[C@@H]12 > 100 µM
2) C=C1CC[C@H](OC(C)=O)[C@]2(C)[C@@H](OC(C)=O)C[C@@]3(O)O[C@]4([C@@H](C)C(=O)O[C@H]4[C@@H](Cl)C3=C)[C@@H](OC(C)=O)[C@@H]12 > 100 µM

Attention now turns to another entry.
Input line: Record request: CC50 at 72 h value, item `C=C1[C@H](OC(C)=O)C[C@H](OC(=O)CC)[C@@]2(C)[C@@H](OC(C)=O)CC[C@]3(CO3)[C@@H]2[C@H](OC(C)=O)[C@]2(O)[C@@H](C)C(=O)O[C@H]2[C@H]1Cl`
Output line: > 100 µM
